# targetUnderTest: HLA-A2 on HLA typed EBV-LCLs (human)
# measurementProtocol: cell-based competition on acid-treated EBV-LCLs against 150 nM fluorescent reference peptide, flow cytometry
# conditionDescription: remark: other sources report otherwise
measurementType: pIC50
# pIC50: negative log10 of molar concentration; output just the value

So for VLHDDLLEA [HA-1^H peptide …] , the logged pIC50 turned out to be 5.19
